B1: glmS ribozyme (parent)
chain: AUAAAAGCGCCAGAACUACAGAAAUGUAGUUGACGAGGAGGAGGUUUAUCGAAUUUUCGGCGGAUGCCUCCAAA

- Variants of: B1
- METHOD SUMMARY: self-cleavage kobs at 2500 uM GlcN6P; higher = faster cleavage; RNA array
- TEST CONDITIONS: with glucosamine-6-phosphate
Variants at the floor of the assay were thinned out.
MEASURED ENDPOINT: self-cleavage kobs at 2500 uM GlcN6P

For orientation, consider the following solved cases.
AUAAAAGCGCCAGAACUACAGAAAUGUAGUUGAAGUGGAGGAGGUUUAUCGGAUUUUCGGCGGAUGCCUCCAAA [C34A A36U A52G] : < 1e-05 s⁻¹
AUAAAAGCGCCACAACUACAGAAAUGUAGUUGACGAGGAGGAGGCUUAUCGAAUUUUCGGCGGAUGCCUCCAAA [G13C U45C] : < 1e-05 s⁻¹
AUAAAAGCGCCAGAACUACAGAAAUGUAGUUGACGCGGAGAAGGUUUAUCGAAUUUUCGGCGGAUGCAUCCAAA [A36C G41A C68A] : < 1e-05 s⁻¹
AUAAAAGCGCCAGAACUACAGAAAUGUAGUUGACGAGGAGGAGGUUUAUCGAAUGUUCGGCCGAUGCCUCCAAA [U55G G62C] : < 1e-05 s⁻¹
AUAAAAACGCAAGAACUACAGAAAUGUAGUUGAUGCGGAGGAGGAUUAUCGAAUUUUCGGCGGAUGCCUCCAAA [G7A C11A C34U A36C U45A] : < 1e-05 s⁻¹
AUAAAAGCGCCAGAACUACAGAAAUGUAGUUGACGUGGAGGAGGUUUAUCGAAUUUUCAGCGUAUGCCUCUAAA [A36U G59A G63U C71U] : < 1e-05 s⁻¹
AUAAAAGCGCCAGAACUACAGAAAUGUAGUUGACGAGAAGGAGGUUUAUCCUAUUUUCGGCAGAUGCCUCCAAA [G38A G51C A52U G62A] : < 1e-05 s⁻¹
AUAAAAGCGCCAGAGCUACAGAAAUGUAGUUGACGAGGAGGAGGUUUUUCGAAAUUUCGGCGGAUGCCUCCAAA [A15G A48U U54A] : 0.000106 s⁻¹
AUAAAAGCGGAAGAACUACAGAAAUGUAGUUGACGAGGAGGAGGUUUAUCGAAUUUUGGGCGUAUGCAUCCAAA [C10G C11A C58G G63U C68A] : 0.000117 s⁻¹
AUAAAAGCGCCAGACCUACAGAAAUGUAGUUGACGAGGGGGAGGUUUAUCGAAUUUUCGGCGGAUGCCUCCAAA [A15C A39G] : 0.00476 s⁻¹

Q. Retrieve self-cleavage kobs at 2500 uM GlcN6P measured for AUAAAAGCGCCAGAACUACAGAAAUGUAGUUAACGAGGAGGCGGUUUAUCGAAUUUUCGGCGGAUGCCUCCAAA [G32A A42C] and print it.
A. < 1e-05 s⁻¹

Q. Retrieve self-cleavage kobs at 2500 uM GlcN6P measured for AUAAAAGCGCCAGAACUACAGAAAUGUAGUUGACGAGGAGGAGGUUAAUCGAAGUUUCGGCGGAUGCGUCCAAA [U47A U54G C68G] and print it.
A. 6.96e-05 s⁻¹

Q. Retrieve self-cleavage kobs at 2500 uM GlcN6P measured for AUAAAAGCGCCAGAAAUACAGAAAUGUAGUUGACGAGGAGGAGGUUUAUCGAAUUUUCGGCGGAUGCCACCAAA [C16A U69A] and print it.
A. 4.42e-05 s⁻¹

Q. Retrieve self-cleavage kobs at 2500 uM GlcN6P measured for AUAAAAGCCCCAGACCUACAGAAAUGUAGUUGCCGAGGAGGAGGUAUAUCGAAUUUUCGGCGGAGGCCUCCAAA [G9C A15C A33C U46A U65G] and print it.
A. < 1e-05 s⁻¹
